Biological target: PDGF-BB (platelet-derived growth factor BB) (Homo sapiens)
Assay: filter
Conditions: Z BndU, P NapdU, M MBndU, superscript 1 2'-OMe, C3 spacer, Heg linkers; 5'-amine; Table 20 gives 1.51E-11

sequence code	Kd
TTACGTTACCGCGTTTATAGCGCCGTTCAAGTGCTTGTAGGATTTAAATGG [4149-8_401 (PDGF_379-HHH-VEGF_192)]	5.6 pM

----------
Target: PDGF-BB (platelet-derived growth factor BB) (Homo sapiens)
Assay: filter
Details: Bn-dU, Nap-dU, Heg, 2'-OMe U as printed
pKd: −log10 of the molar value.

sequence code	test target	pKd
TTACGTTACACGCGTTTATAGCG [4149-8_127]	PDGF-BB (platelet-derived growth factor BB) (Homo sapiens)	< 8.00
